test-method-notes: orientative test for oral acute toxicity in female mice
particulars: mouse, in vivo; oral (gavage), single dose 1 g/kg, deaths checked for 1 week; read-out: LD50 oral mice
Procedure: As experimental models of inflammation, serving for testing the antiinflammatory activity, there were used the method of kaolin-induced edema of rat hind limb (Hillebrecht J.: Arzneim-Forsch. 9, p. 625, 1959). Kaolin edema of rat hind limb was induced by subplantar injection of 10% kaolin suspension dosed 0.1 ml per animal. […] The edema of the right hind limb was measured volumetrically on a Volumometer Ugo Basile at hours 1; 1.5; 3; 4.5 and 6 after injection of kaolin. […]
I'd be grateful if you could share measured LD50 at 168 h for these entries.

Exercise: Which LD50 at 168 h value belongs to COc1ccc(COc2ccc(C(C)C(=O)O)cc2Cl)cc1Cl (stereo not shown) [reference compound] ?
Solution: < 1000 mg/kg

Exercise: Which LD50 at 168 h value belongs to O=C(O)Cc1ccc(OCc2ccc(Cl)cc2)c(Cl)c1 ?
Solution: > 1000 mg/kg

Exercise: Which LD50 at 168 h value belongs to CC(C)Oc1ccc(COc2ccc(CC(=O)O)cc2Cl)cc1 ?
Solution: < 1000 mg/kg

Exercise: Which LD50 at 168 h value belongs to CC(C(=O)O)c1ccc(OCc2ccccc2)c(Cl)c1 (stereo not shown) [reference compound] ?
Solution: 1000 mg/kg

Exercise: Which LD50 at 168 h value belongs to COc1ccc(COc2ccc(CC(=O)O)cc2Cl)cc1Cl ?
Solution: > 1000 mg/kg

Exercise: Which LD50 at 168 h value belongs to CC(C)Oc1ccc(COc2ccc(C(C)C(=O)O)cc2Cl)cc1 (stereo not shown) [reference compound] ?
Solution: < 1000 mg/kg

Exercise: Which LD50 at 168 h value belongs to O=C(O)Cc1ccc(OCc2ccccc2)c(Cl)c1 ?
Solution: > 1000 mg/kg
